# Procedure Details: Single-dose pharmacokinetics in female FVB mice
# Format: in vivo, mouse
# Test Context: female, FVB/NJ, mouse, brain, ip, 30 mg/kg
Metric: Tmax
Answer with the value and then the unit.

Look at this compound and give its reported Tmax. "O=C(NC1CCCCC1)N(Cc1ccccc1)CC1CCNCC1"
15 min

----------
# Procedure Details: Single-dose pharmacokinetics in female FVB mice
# Assay type: in vivo, mouse
# Test Context: female, FVB/NJ, mouse, brain, po, 50 mg/kg
Metric: Tmax

Look at this compound and give its reported Tmax. "O=C(NC1CCCCC1)N(Cc1ccccc1)CC1CCNCC1"
1 h

----------
# Procedure Details: Single-dose pharmacokinetics in female FVB mice
# Assay type: in vivo, mouse
# Test Context: female, FVB/NJ, mouse; brain, iv, 10 mg/kg; AUC from 0.25 to 4 h
Metric: AUC(0-t) (ng·h/mL)
Give bare numbers, in ng·h/mL.

Look at this compound and give its reported AUC(0-t). O=C(NC1CCCCC1)N(Cc1ccccc1)CC1CCNCC1 [SRI-011381]
738

----------
# Procedure Details: Single-dose pharmacokinetics in female FVB mice
# Type: in vivo, mouse
# Test Context: female, FVB/NJ, mouse, plasma, intraperitoneal; extravascular estimates (ip and po) based on F; read-out: Cl (converted)
Metric: clearance

Look at this compound and give its reported clearance. O=C(NC1CCCCC1)N(Cc1ccccc1)CC1CCNCC1 [SRI-011381]
~150 mL/min/kg

----------
# Procedure Details: Single-dose pharmacokinetics in female FVB mice
# Type: in vivo, mouse
# Test Context: female, FVB/NJ, mouse, brain, ip, 30 mg/kg; read-out: Brain to Plasma concentration ratio at 4 h
Metric: Kp at 4 h

Look at this compound and give its reported Kp at 4 h. "O=C(NC1CCCCC1)N(Cc1ccccc1)CC1CCNCC1"
1.65

----------
# Procedure Details: Single-dose pharmacokinetics in female FVB mice
# Assay type: in vivo, mouse
# Test Context: female, FVB/NJ, mouse, plasma, iv, 10 mg/kg; read-out: CI (clearance) (converted)
# Method: Pharmacokinetics of SRI-011381 after single intravenous, intraperitoneal, or oral administration in female FVB mice: The objective of this study was to determine the single-dose pharmacokinetics of SRI-011381 in plasma and brain. […] Plasma and brain were collected at various time points up to 24 h and analyzed by LC/MS for determination of SRI-011381 levels. […]
Metric: clearance (mL/min/kg)
Give bare numbers, in mL/min/kg.

Look at this compound and give its reported clearance. "O=C(NC1CCCCC1)N(Cc1ccccc1)CC1CCNCC1"
154

----------
# Procedure Details: Single-dose pharmacokinetics in female FVB mice
# Type: in vivo, mouse
# Test Context: female, FVB/NJ, mouse, plasma, iv, 10 mg/kg
Metric: AUC(0-inf) (µg·h/mL)
Answers are plain numbers, in µg·h/mL.

Look at this molecule and give its reported AUC(0-inf). O=C(NC1CCCCC1)N(Cc1ccccc1)CC1CCNCC1 [SRI-011381]
1.08

----------
# Procedure Details: Single-dose pharmacokinetics in female FVB mice
# Format: in vivo, mouse
# Test Context: female, FVB/NJ, mouse, brain, iv, 10 mg/kg
Metric: Cmax (µg/mL)
Numbers only, in µg/mL.

Look at this compound and give its reported Cmax. "O=C(NC1CCCCC1)N(Cc1ccccc1)CC1CCNCC1"
0.231
